# Test system: L1210 leukemia ip in BDF1 mice, survival T/C
# ASSAY_SUMMARY: NCI In Vivo Anticancer Drug Screen. Data for tumor model L1210 Leukemia (intraperitoneal) in B6D2F1 (BDF1) mice
# MEASUREMENT_CONTEXT: endpoint: mean survival time; dose: 100.0 mg/kg/injection; schedule: Q04DX002 (ip); vehicle: Klucel (hydroxypropylcellulose) (HPC); higher = longer survival
# Method: The antitumor activity of compounds was measured in mice bearing transplantable tumors. Survival or tumor size were measured and the results are expressed as the measurement made in the treated group (T) divided by the measurement made in the vehicle treated control group (C). The tumor model used in this assay is L1210 Leukemia (intraperitoneal) in B6D2F1 (BDF1) mice
Inconclusive results and toxic doses are left out.
The entries below come with measured T/C values attached.
READOUT_NAME: T/C

molecule="OCC(O)C(O)CO (stereo not drawn) (tested in a mixture with another compound)" value_observed="95 % of control"
molecule=CCOC(=O)N(c1ccccc1)c1ccccc1 value_observed="106 % of control"
molecule="Cc1ccc([N+](=O)[O-])cc1NC(=O)OCC1CCCO1 (stereo not drawn)" value_observed="87 % of control"
molecule="NC(Cc1ccc(O)cc1)C(=O)OCc1ccccc1 (stereo not drawn)" value_observed="104 % of control"
molecule=CCOC(=O)CNc1cc(Cl)cc(Cl)c1 value_observed="100 % of control"
molecule=C#CC1(N2CCCCC2)CCCCC1 value_observed="102 % of control"
molecule=C=CCCCCCCCCC(=O)N/N=C/c1ccccc1 value_observed="95 % of control"
molecule="CCCC(O)c1ccc(OC)c(OC)c1 (stereo not drawn)" value_observed="97 % of control"
molecule=Cc1ccc(-n2ccnc2)c(N=Cc2ccc(N(CCCl)CCCl)cc2C)c1 value_observed="98 % of control"
molecule="CCCCN1C(=O)C2C3CCC(O3)C2C1=O (stereo not drawn)" value_observed="98 % of control"
molecule="O=C(O)C1CCCCC1C(=O)NCc1ccccc1Cl (stereo not drawn)" value_observed="100 % of control"
molecule="CCOC(=O)C(c1ccccc1)C(NC(C)=O)(C(=O)OCC)C(=O)OCC (stereo not drawn)" value_observed="114 % of control"
molecule="CCNC(=O)C1C(c2ccccc2)C1c1ccccc1 (stereo not drawn)" value_observed="102 % of control"
molecule=O=C(Nc1ccc(Cl)cc1Cl)Nc1ccc(Cl)cc1Cl value_observed="91 % of control"
molecule=NC(=S)N/N=C\c1c(Cl)[nH]c2ccc(/C=N/NC(N)=S)cc12 value_observed="90 % of control"
molecule=CCCCCCCCCC(=O)Nc1ccc(C)cc1C value_observed="97 % of control"
molecule="CC1C(c2ccccc2)OCCN1CN1C(=O)c2ccccc2C1=O (stereo not drawn)" value_observed="100 % of control"
molecule=CCCN1CCCN(CCC)C1=O value_observed="102 % of control"
molecule=Cc1cccc(NC(=O)Oc2ccc(-c3ccccc3)cc2)c1 value_observed="95 % of control"
molecule=c1ccc(Cc2nn[nH]n2)cc1 value_observed="105 % of control"
molecule=COC(=O)c1ccccc1NC(=O)c1ccccc1C(=O)O value_observed="98 % of control"
molecule=COc1ccc(NC(=O)Nc2onc(C)c2C)c(Cl)c1 value_observed="101 % of control"
molecule="O=C(O)C12CCC1(Cl)CC2 (stereo not drawn)" value_observed="97 % of control"
molecule=COc1ccc(NC(=S)Nc2ccccc2)c(Cl)c1 value_observed="105 % of control"
molecule=Nc1nc(N)nc(N)n1 value_observed="94 % of control"
molecule=CCSN1C(=O)c2ccccc2C1=O value_observed="92 % of control"
molecule=COc1ccc([N+](=O)[O-])cc1NS(=O)(=O)c1ccc2ccccc2c1 value_observed="104 % of control"
molecule=O=C(Nc1cccc(C(F)(F)F)c1)c1ccc(F)cc1 value_observed="91 % of control"

----------
# Test system: L1210 leukemia ip in BDF1 mice, survival T/C
# ASSAY_SUMMARY: NCI In Vivo Anticancer Drug Screen. Data for tumor model L1210 Leukemia (intraperitoneal) in B6D2F1 (BDF1) mice
# MEASUREMENT_CONTEXT: endpoint: mean survival time; dose: 400.0 mg/kg/injection; schedule: Q01DX009 (ip); vehicle: saline; higher = longer survival
Inconclusive results and toxic doses are left out.
READOUT_NAME: T/C

molecule=CN(C)c1n[nH]c(N)n1 readout_name=T/C value_observed="116 % of control"
molecule=COc1cc(CCN)ccc1O readout_name=T/C value_observed="95 % of control"
molecule=Cc1cc(C)[nH]n1 readout_name=T/C value_observed="100 % of control"
molecule=NCCCC(=O)O readout_name=T/C value_observed="94 % of control"
molecule=Cc1ccc(S(=O)(=O)NC(c2ccccc2)(c2ccccc2)c2ccc([N+](=O)[O-])cc2)cc1 readout_name=T/C value_observed="101 % of control"
molecule=CCc1ccc(C(=O)NN)cc1 readout_name=T/C value_observed="123 % of control"
molecule=COCCOCCOCCOCCOCCN readout_name=T/C value_observed="98 % of control"
molecule=NC(=O)Nc1cc(NC(N)=O)cc([N+](=O)[O-])c1 readout_name=T/C value_observed="93 % of control"
molecule=CC(C)(O)C#CC(C)(C)O readout_name=T/C value_observed="110 % of control"
molecule=c1ccc(C([CH2][Hg][CH2]C(c2ccccc2)c2ccccc2)c2ccccc2)cc1 readout_name=T/C value_observed="101 % of control"
molecule="CCOC(O)(C=O)C1CCCN1 (centres undefined)" readout_name=T/C value_observed="95 % of control"
molecule="CC(NC(=O)C(F)(F)F)C(=O)O (centres undefined)" readout_name=T/C value_observed="113 % of control"
molecule="CC(=O)OC12C=CC(C(C)=C1)C1C(=O)C=CC(=O)C12 (centres undefined)" readout_name=T/C value_observed="90 % of control"
molecule="CC(=O)NCSCC(N)C(=O)O (centres undefined)" readout_name=T/C value_observed="92 % of control"

----------
The entries below come with measured T/C values attached.
# Tested on: L1210 leukemia ip in BDF1 mice, survival T/C
# ASSAY_SUMMARY: NCI In Vivo Anticancer Drug Screen. Data for tumor model L1210 Leukemia (intraperitoneal) in B6D2F1 (BDF1) mice
# MEASUREMENT_CONTEXT: endpoint: mean survival time; dose: 150.0 mg/kg/injection; schedule: Q01DX001 (ip); vehicle: Klucel (hydroxypropylcellulose) (HPC); higher = longer survival
Toxic doses and inconclusive results are not listed.
READOUT_NAME: T/C

structure_string=Cc1ccccc1N=Nc1c(O)n(-c2ccc(Br)cc2)c(=S)n(-c2ccccc2)c1=O readout_name=T/C value_observed="101 % of control"
structure_string=COc1ccc(-n2c(=O)c(N=Nc3ccccc3C)c(O)n(-c3ccc(Br)cc3)c2=S)cc1 readout_name=T/C value_observed="105 % of control"
structure_string=O=c1cc(N(Cc2ccccc2)Cc2ccccc2)[nH]c(=O)[nH]1 readout_name=T/C value_observed="102 % of control"
structure_string=O=c1cc(Nc2cccc3cc4ccccc4cc23)[nH]c(=O)[nH]1 readout_name=T/C value_observed="90 % of control"

----------
The entries below come with measured T/C values attached.
# System: L1210 leukemia ip in BDF1 mice, survival T/C
# ASSAY_SUMMARY: NCI In Vivo Anticancer Drug Screen. Data for tumor model L1210 Leukemia (intraperitoneal) in B6D2F1 (BDF1) mice
# MEASUREMENT_CONTEXT: endpoint: mean survival time; dose: 200.0 mg/kg/injection; schedule: Q04DX003 (ip); vehicle: water; higher = longer survival
Toxic doses and inconclusive results are not listed.
READOUT_NAME: T/C

compound="CCN(CC)CCCNC(C)CCCN(CC)CC (centres undefined)" readout_name=T/C value_observed="98 % of control"
compound=CC(=O)n1ncc2ccc([N+](=O)[O-])cc21 readout_name=T/C value_observed="100 % of control"
compound=COc1ccc(/C=C/C(=O)c2ccc(OC)c(OCc3ccccc3)c2)cc1OC readout_name=T/C value_observed="94 % of control"
compound=COc1cc2c(cc1OC)C(=O)N(C)CC2 readout_name=T/C value_observed="97 % of control"

----------
The entries below come with measured T/C values attached.
# Tested on: L1210 leukemia ip in BDF1 mice, survival T/C
# ASSAY_SUMMARY: NCI In Vivo Anticancer Drug Screen. Data for tumor model L1210 Leukemia (intraperitoneal) in B6D2F1 (BDF1) mice
# MEASUREMENT_CONTEXT: endpoint: mean survival time; dose: 100.0 mg/kg/injection; schedule: Q04DX003 (ip); vehicle: other; higher = longer survival
Inconclusive results and toxic doses are left out.
READOUT_NAME: T/C

compound="O=S(=O)(OCC1CC2C=CC1C2)c1ccc(Br)cc1 (configuration not stated)" value_observed="86 % of control"
compound=Cc1nc(Cl)cc(Cl)c1C value_observed="106 % of control"
compound="CCSC1C(OC(C)=O)OC(C(COC(C)=O)OC(C)=O)C1OC(C)=O (configuration not stated)" value_observed="96 % of control"
compound=NC(=S)NO value_observed="107 % of control"
compound=O=C(COc1cccc(Cl)c1)Nc1ccccc1S(=O)(=O)F value_observed="89 % of control"
compound=Clc1ncnc2nc[nH]c12 value_observed="115 % of control"
compound=O=C1c2ccccc2CC1(Br)Br value_observed="96 % of control"

Sourced from PubChem BioAssay AID248
